Target: 5-hydroxytryptamine receptor 1A (Rattus norvegicus)
Sequence (P19327 whole entry): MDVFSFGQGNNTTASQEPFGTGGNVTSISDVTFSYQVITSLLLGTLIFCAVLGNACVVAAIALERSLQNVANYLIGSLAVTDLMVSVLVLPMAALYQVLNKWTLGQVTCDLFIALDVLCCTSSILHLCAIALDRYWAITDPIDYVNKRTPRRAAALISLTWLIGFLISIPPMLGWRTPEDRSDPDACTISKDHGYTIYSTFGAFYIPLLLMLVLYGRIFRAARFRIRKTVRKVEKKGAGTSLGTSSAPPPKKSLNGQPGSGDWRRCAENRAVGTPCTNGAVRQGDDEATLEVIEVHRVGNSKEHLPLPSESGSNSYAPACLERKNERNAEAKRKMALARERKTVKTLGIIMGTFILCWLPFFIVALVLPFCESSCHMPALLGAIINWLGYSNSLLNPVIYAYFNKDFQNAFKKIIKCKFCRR
Below, each entry is listed with its recorded Ki.

Report measured Ki; entry is "COc1ccc(-c2cc3c(=O)n(CCN4CCN(c5ccccc5OC)CC4)c(=O)n(Cc4ccccc4OC)c3[nH]2)cc1"
0.184 µM

Report measured Ki; entry is "O=c1[nH]c2[nH]c(-c3ccccc3)c(-c3ccccc3)c2c(=O)n1CCN1CCN(c2ccccc2Cl)CC1"
1.54 µM

Report measured Ki; entry is "COc1ccc(-c2cc3c(=O)n(CCN4CCN(c5ccccc5Cl)CC4)c(=O)n(Cc4ccccc4OC)c3[nH]2)cc1"
4.67 µM

Report measured Ki; entry is "O=c1[nH]c2[nH]c(-c3ccc(OCCOc4ccccc4)cc3)cc2c(=O)n1CCN1CCN(c2ccccc2Cl)CC1"
> 10 µM

Report measured Ki; entry is "O=c1[nH]c2[nH]c(-c3ccc(-c4ccccc4)cc3)cc2c(=O)n1CCN1CCN(c2ccccc2Cl)CC1"
> 10 µM

Report measured Ki; entry is "O=c1[nH]c2[nH]c(-c3ccc(OCc4ccccc4)cc3)cc2c(=O)n1CCN1CCN(c2ccccc2Cl)CC1"
> 10 µM

Report measured Ki; entry is "COc1ccccc1N1CCN(CCn2c(=O)[nH]c3[nH]c(-c4ccc(Oc5ccccc5)cc4)cc3c2=O)CC1"
0.0171 µM

Report measured Ki; entry is "Cc1ccc(-c2c[nH]c3c(=O)n(CCN4CCN(c5ccccc5Cl)CC4)c(=O)[nH]c23)cc1"
> 10 µM

====

Biological target: 5-hydroxytryptamine receptor 1A (Rattus norvegicus)
Below, each entry is listed with its recorded Ki.
Answer with a number only, understood to be in µM.

| mol.smiles | unit.symbol | obs.value |
| --- | --- | --- |
| COc1ccccc1N1CCN(CCn2c(=O)[nH]c3[nH]c(-c4ccc(-c5ccccc5)cc4)cc3c2=O)CC1 | µM | 3.68 |

State Ki (5-hydroxytryptamine receptor 1A (Rattus norvegicus)) of "O=c1[nH]c2c(-c3ccccc3)c[nH]c2c(=O)n1CCN1CCN(c2ccccc2Cl)CC1" .
0.0431

====

Target: Adrenergic receptor alpha-1 (Rattus norvegicus, UniProt P15823+P23944+P43140)
Sequence (P15823 whole entry): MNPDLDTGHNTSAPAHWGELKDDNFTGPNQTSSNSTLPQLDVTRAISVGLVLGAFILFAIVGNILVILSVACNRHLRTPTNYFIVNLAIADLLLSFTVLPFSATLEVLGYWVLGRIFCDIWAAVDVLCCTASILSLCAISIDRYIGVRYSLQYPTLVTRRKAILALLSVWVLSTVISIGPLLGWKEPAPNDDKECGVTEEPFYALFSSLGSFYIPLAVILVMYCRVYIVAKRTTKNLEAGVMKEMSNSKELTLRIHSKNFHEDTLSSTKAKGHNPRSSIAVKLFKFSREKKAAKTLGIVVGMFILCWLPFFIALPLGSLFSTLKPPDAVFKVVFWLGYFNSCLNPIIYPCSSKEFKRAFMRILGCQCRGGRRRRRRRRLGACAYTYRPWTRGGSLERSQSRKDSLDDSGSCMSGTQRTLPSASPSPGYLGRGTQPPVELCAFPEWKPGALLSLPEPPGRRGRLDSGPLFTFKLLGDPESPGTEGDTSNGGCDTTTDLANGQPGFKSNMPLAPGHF
Sequence (P23944 whole entry): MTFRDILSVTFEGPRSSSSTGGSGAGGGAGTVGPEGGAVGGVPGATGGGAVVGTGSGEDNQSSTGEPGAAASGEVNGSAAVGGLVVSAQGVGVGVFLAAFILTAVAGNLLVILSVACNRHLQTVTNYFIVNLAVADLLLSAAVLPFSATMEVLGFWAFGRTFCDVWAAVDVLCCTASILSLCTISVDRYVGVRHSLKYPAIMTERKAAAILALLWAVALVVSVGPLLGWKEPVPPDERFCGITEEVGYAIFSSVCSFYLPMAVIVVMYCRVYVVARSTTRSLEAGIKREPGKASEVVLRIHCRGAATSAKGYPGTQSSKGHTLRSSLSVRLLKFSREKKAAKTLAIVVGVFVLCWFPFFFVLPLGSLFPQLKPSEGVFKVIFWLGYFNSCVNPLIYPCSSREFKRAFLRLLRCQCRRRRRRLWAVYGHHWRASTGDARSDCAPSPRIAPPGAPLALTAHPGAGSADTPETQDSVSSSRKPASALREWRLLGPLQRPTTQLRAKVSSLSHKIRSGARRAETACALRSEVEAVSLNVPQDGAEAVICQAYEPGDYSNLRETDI
Sequence (P43140 whole entry): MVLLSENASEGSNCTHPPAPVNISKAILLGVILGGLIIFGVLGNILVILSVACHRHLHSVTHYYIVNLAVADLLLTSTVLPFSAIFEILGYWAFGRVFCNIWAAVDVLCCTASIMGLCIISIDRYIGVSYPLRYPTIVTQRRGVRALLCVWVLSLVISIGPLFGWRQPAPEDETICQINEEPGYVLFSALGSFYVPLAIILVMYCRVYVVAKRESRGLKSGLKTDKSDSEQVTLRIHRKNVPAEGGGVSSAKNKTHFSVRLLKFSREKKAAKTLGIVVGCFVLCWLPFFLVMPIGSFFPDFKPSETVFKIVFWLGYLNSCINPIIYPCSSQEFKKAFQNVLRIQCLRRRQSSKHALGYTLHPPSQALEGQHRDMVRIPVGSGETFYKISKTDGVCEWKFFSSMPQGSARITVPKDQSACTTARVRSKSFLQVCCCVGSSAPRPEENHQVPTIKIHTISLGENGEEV
Assay: Displacement of [3H]prazosin from alpha1-ARs in CRL:CD(SD)BR-COBS rat brain cortex after 30 mins by liquid scintillation spectrometry
Categorized via Ki: low end = under 3 nM, middle = from 3 nM up to 40 nM, high end = 40 nM and over

Would you please look over these solved cases?
| mol.smiles | assigned.class |
| --- | --- |
| Cc1ccc(-c2c[nH]c3c(=O)n(CCN4CCN(c5ccccc5Cl)CC4)c(=O)[nH]c23)cc1 | middle |
| O=c1[nH]c2c(-c3ccccc3)c[nH]c2c(=O)n1CCN1CCN(c2ccccc2Cl)CC1 | low end |
| O=c1c2cc(-c3ccccc3)[nH]c2n(Cc2ccccc2)c(=O)n1CCN1CCN(c2ccccc2Cl)CC1 | middle |

Any idea which band "CC(C)(C)c1cc2[nH]c(=O)n(CCN3CCN(c4ccccc4Cl)CC3)c(=O)c2[nH]1" is in?
low end

Any idea which band "COc1ccccc1N1CCN(CCn2c(=O)[nH]c3[nH]c(-c4ccc(Cl)cc4)cc3c2=O)CC1" is in?
middle

Any idea which band "COc1ccc(-c2cc3c(=O)n(CCN4CCN(c5ccccc5OC)CC4)c(=O)n(Cc4ccccc4OC)c3[nH]2)cc1" is in?
middle

Any idea which band "COc1ccccc1N1CCN(CCn2c(=O)[nH]c3[nH]c(-c4ccc(OCCOc5ccccc5)cc4)cc3c2=O)CC1" is in?
high end

Any idea which band "O=c1[nH]c2c(-c3ccccc3Cl)c[nH]c2c(=O)n1CCN1CCN(c2ccccc2Cl)CC1" is in?
low end

Any idea which band "COc1ccccc1N1CCN(CCn2c(=O)[nH]c3cc(-c4ccco4)[nH]c3c2=O)CC1" is in?
middle

Any idea which band "O=c1[nH]c2[nH]c(-c3ccc(OCc4ccccc4)cc3)cc2c(=O)n1CCN1CCN(c2ccccc2Cl)CC1" is in?
high end

Any idea which band "COc1ccccc1N1CCN(CCn2c(=O)[nH]c3[nH]c(-c4ccccc4)c(-c4ccccc4)c3c2=O)CC1" is in?
middle
